Molecular target: BRM (Homo sapiens, UniProt P51531)
Sequence (P51531 whole entry): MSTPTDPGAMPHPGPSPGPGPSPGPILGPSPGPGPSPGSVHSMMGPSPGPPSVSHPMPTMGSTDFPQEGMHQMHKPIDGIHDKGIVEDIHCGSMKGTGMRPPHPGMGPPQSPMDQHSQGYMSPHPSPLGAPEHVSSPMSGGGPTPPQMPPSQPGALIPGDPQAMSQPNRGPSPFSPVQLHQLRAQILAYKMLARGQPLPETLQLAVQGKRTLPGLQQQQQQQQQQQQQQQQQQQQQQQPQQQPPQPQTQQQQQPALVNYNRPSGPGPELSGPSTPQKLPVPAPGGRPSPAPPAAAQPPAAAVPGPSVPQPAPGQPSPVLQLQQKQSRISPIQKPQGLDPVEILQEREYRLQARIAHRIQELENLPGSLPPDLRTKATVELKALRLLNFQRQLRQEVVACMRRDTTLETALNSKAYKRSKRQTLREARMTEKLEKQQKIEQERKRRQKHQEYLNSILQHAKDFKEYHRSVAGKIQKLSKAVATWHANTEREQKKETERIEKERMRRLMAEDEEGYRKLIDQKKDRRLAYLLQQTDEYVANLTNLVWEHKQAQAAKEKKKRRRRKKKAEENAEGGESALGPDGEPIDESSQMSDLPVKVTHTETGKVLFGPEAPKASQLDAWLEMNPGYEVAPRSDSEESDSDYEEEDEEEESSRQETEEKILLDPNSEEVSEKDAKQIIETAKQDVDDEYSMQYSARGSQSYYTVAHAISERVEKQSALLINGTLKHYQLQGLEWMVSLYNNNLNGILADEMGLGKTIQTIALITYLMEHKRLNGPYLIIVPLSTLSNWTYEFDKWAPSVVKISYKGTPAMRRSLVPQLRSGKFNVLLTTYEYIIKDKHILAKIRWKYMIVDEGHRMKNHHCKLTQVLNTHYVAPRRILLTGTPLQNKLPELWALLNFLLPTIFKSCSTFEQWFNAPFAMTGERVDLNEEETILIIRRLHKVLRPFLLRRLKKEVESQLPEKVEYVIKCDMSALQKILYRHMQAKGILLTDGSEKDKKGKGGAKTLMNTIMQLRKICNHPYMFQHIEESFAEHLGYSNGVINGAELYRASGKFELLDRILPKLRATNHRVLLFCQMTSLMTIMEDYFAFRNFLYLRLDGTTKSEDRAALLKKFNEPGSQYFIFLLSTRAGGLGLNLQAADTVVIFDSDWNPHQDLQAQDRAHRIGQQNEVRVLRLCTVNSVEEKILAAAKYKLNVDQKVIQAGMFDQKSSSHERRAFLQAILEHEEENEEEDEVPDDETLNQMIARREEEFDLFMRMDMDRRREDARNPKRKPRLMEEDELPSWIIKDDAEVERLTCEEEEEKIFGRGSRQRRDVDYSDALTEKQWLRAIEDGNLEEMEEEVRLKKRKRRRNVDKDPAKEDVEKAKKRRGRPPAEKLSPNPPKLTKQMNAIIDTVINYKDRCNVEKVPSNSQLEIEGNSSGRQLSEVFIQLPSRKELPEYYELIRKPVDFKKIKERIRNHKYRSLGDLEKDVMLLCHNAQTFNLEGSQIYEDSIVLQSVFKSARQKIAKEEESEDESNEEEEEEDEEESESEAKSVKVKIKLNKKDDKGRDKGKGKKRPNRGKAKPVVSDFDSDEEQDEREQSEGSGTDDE
Assay: ATPase catalytic activity assay (ADP-Glo), BRM
Details: 30 nM BRM, 400 μM ATP
measured metric: BRM Max % Inhibition (%)
# number only, unit % dropped from output

C[C@@]1(C#N)COCc2ccc(C(=O)NCc3cc([C@H]4C[C@@H](c5ccccc5)C4)ccn3)cc21 [Compound 19]	97
C[C@@]1(C#N)COCc2ccc(C(=O)NCc3cc4nc(-c5ccnc(C6(F)CC6)n5)ccc4cn3)cc21 [Compound 204]	97
CCc1cc2c(-c3ccc4cnc(CNC(=O)c5ccc6c(c5)[C@](C)(C#N)COC6)cc4n3)cccc2n1C [Compound 134]	101

--- query ---
-- ask Field: BRM Max % Inhibition (BRM (Homo sapiens, UniProt P51531)). Entry: CN1CCCc2c(-c3ccc4cnc(CNC(=O)c5ccc6c(c5)[C@](C)(C#N)COC6)cc4n3)cccc21 [Compound 149]
-- reply 95

Origin of values: patent US12441726B2
